Provide the reported composite z-score of each item.
# Tested on: wheat germ agglutinin (Triticum aestivum), Alexa647-labelled
# PROTOCOL DETAILS: wheat germ agglutinin binders on compound microarrays, profiling panel, artefact control for SMM control-protein annotation, biochemical, small-molecule microarray, 635/667 nm fluorescence (AID 1140);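 also: score merges 667 nm feature emission with signal to noise over triplicate slides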
# MEASUREMENT CONTEXT: WGA-A647 binding, 635 nm fluorescence, higher = more signal
Just the number, please, no unit attached.

If you can, please state the reported composite z-score value of O=C1NC(=O)C2C1C=CC(C(O)CCc1ccccc1)N2Nc1ccc(Cl)cc1Cl (configuration not stated) .
1.07

Let us now turn to CN(C)C(=O)C1N=C(c2ccc(OCCCO)cc2)N(c2ccccc2)O1 (configuration not stated)
0.586

Consider next the compound C=CC[C@]1(C(=O)NCCN2CCOCC2)N=C(c2ccc(OCCCO)cc2)O[C@H]1c1ccccc1CN=[N+]=[N-] in the same way.
1.03

Another: O=C1OCCC/C=C\[C@H]2OC34C=CCN(CCN5CCOCC5)C(=O)[C@H]3N(CCCCCCO)C(=O)[C@@H]4C12 (some centres not stated)
0.33

Entry to check: COc1cc2c(cc1OC)CN(C(=O)[C@@H]1[C@H]3C(=O)O[C@H](c4ccccc4)[C@H](c4ccccc4)N3[C@H](c3ccc(OCCO)cc3)[C@@]13C(=O)Nc1ccccc13)CC2
1.3

And for COCCOC(=O)N1C(=O)[C@@]2(c3cc(C#Cc4ccc(OC)cc4)ccc31)[C@H](C(=O)Nc1nc3ccccc3s1)[C@H]1C(=O)O[C@H](c3ccccc3)[C@H](c3ccccc3)N1[C@@H]2c1ccc(OCCO)cc1 ?
0.494

Another compound: CN(C)CCCNC(=O)[C@@]1(c2ccc([N+](=O)[O-])cc2)CC(=O)N(CC23CC4CC(CC(C4)C2)C3)[C@@H]1c1ccc(CO)cc1I
0.674

Now give it for COc1ccc([Si](C)(C)[C@H]2[C@H](CC(=O)N(CCO)Cc3ccccc3)O[C@@]3(C(=O)N(Cc4cccc(N5CCOC5=O)c4)c4ccccc43)[C@@H]2C)cc1 too.
0.321

Can you check C=CCC(OC(C)=O)[C@@H]1[C@@H](N(Cc2cccc3ccccc23)C(=O)c2cccc3ccccc23)c2cc(OCCCO)ccc2N1C(=O)c1ccc(-c2ccccc2)cc1 (some centres not stated) next?
0.0915

Then this compound: CN1C(=O)C2C=CC(C(O)C#Cc3ccccc3)N(Nc3ccccc3)C2C1=O (configuration not stated)
1.24

Continue with COc1cccc(/C=C/C=O)c1
0.205

Same question for [N-]=[N+]=NCc1ccccc1C[C@@]1(C(=O)N2CCCCC2)N=C(c2ccc(OCCCO)cc2)O[C@@H]1c1ccccc1 please.
0.636

Same read-out for CN(C)C(=O)[C@@]1(Cc2ccccc2CN=[N+]=[N-])N=C(c2ccc(OCCCO)cc2)O[C@H]1c1ccccc1CN=[N+]=[N-] ?
1.12

Follow-up entry: CO[C@H]1O[C@H](CO)[C@@H](OC(=O)Nc2ccccc2-c2ccccc2)[C@H](OC(=O)Nc2ccc3c(c2)OCO3)[C@H]1OC(=O)Nc1ccc2c(c1)OCO2
1.1

What do you have for COCCOC(=O)N1C(=O)[C@@]2(c3cc(C#CC4=CCCCC4)ccc31)[C@H](c1ccc(O)cc1)N1[C@H](c3ccccc3)[C@H](c3ccccc3)OC(=O)[C@H]1[C@@H]2C(=O)N1CCN(c2ncccn2)CC1 ?
-0.649

Same question, O=C1OCC=C[C@H]2OC34C=CCN(Cn5nnc6ccccc65)C(=O)[C@H]3N(CCCO)C(=O)[C@@H]4[C@@H]12 (some centres not stated) this time
-0.43

Similarly, C=CC1c2cc(O)c(OC)cc2CCN1Cc1cc2c(cc1Br)OCO2 (configuration not stated) ?
-0.623

###

For each entry below, report its composite z-score value.
# PROTOCOL DETAILS: binders of probe aHhip on microarray, primary screen, stem cell growth factor project, biochemical, small-molecule microarray, fluorescence 635/667 (AID 1087);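 also: score merges spot fluorescence at 667nm with spot signal to noise ratio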
# MEASUREMENT CONTEXT: higher = more signal
Enter a number only.

Returns the measured composite z-score for the input compound. Input: COC(=O)[C@@]1(Cc2ccccc2)[C@H]2c3cc(C(=O)N(C)C)n(CCc4ccc(O)c(OC)c4)c3C[C@H]2CN1C(=O)c1ccccc1
2.09

Subsequent entry: CCOC(=O)C[C@H]1[C@H](OC(=O)c2cc3ccccc3oc2=O)[C@@H](NC(=O)c2ccc(-c3ccccc3)cc2)c2cc(OCCCO)ccc2N1C(=O)c1ccc2ccccc2n1
-0.0994

Same thing, different compound: COc1ccc([Si](C)(C)[C@H]2[C@H](CCn3cc([C@H](O)c4ccccc4)nn3)O[C@@]3(C(=O)N(Cc4ccc(N5C(=O)c6cccc7cccc5c67)cc4)c4ccccc43)[C@@H]2C)cc1
-0.0994

// repeat for CN(C)CCCNC(=O)[C@@]1(C)c2ccccc2C(=O)N(Cc2ccccc2)[C@H]1c1ccc(CO)cc1 and report
-0.0074

# iterate: COCCOC(=O)N1C(=O)[C@@]2(c3cc(C#CC4=CCCCC4)ccc31)[C@H](c1ccccc1OCCO)N1[C@H](c3ccccc3)[C@H](c3ccccc3)OC(=O)[C@H]1[C@@H]2C(=O)Nc1nc2ccccc2s1
0.0373

Likewise for C=CCNC(=O)[C@@H]1[C@H]2C(=O)O[C@H](c3ccccc3)[C@H](c3ccccc3)N2[C@H](c2ccc(O)cc2)[C@@]12C(=O)N(C(=O)OCCOC)c1ccc(C#CC3(O)CCCCCC3)cc12 ?
-0.312

// repeat for COCCOC(=O)N1C(=O)[C@@]2(c3cc(C#CC4=CCCCC4)ccc31)[C@H](c1ccccc1OCCO)N1[C@H](c3ccccc3)[C@H](c3ccccc3)OC(=O)[C@H]1[C@@H]2C(=O)N1CCCCCCC1 and report
-0.972

###

# System: Wnt5a (protein binding on small-molecule microarray)
# PROTOCOL DETAILS: Wnt5a binders on small-molecule microarray, primary screen, biophysical, 635/667 nm fluorescence (AID 1142);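 also: fluorescence read at 667 nm with signal to noise per printed feature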
# MEASUREMENT CONTEXT: 635 nm fluorescence, higher = more signal
Outcome label depends on composite z-score relative to 0: at/above gives TRUE, below gives FALSE.

Item COC(=O)c1c(CC[C@@H](CO)NC(=O)N[C@H](Cn2cc(C3(O)CCCCC3)nn2)C(C)C)oc(C(C)=O)c1C(=O)OC with composite z-score of 0 or above?
TRUE

Please answer likewise for COC(=O)c1c(CC[C@@H](CO)NC(=O)N2CCC[C@H]2Cn2cc(Cc3ccccc3)nn2)oc(C(C)=O)c1C(=O)OC
FALSE

Check C=CCNC(=O)[C@H]1[C@@H]2C(=O)O[C@@H](c3ccccc3)[C@@H](c3ccccc3)N2[C@@H](c2ccc(O)cc2)[C@]12C(=O)Nc1ccc(C#CC3(O)CCCCCC3)cc12 too.
FALSE

One more compound: C[C@H]1NC(=O)[C@@]23C(=O)N[C@@H](Cc4ccccc4)C2[C@H](C)[C@@]2(C)O[C@H]2C3/C=C/C/C=C\CNC(=O)[C@H](Cc2ccccc2)NC1=O (stereo not given in full)
TRUE

Here is the next compound: COC(=O)[C@@]1(Cc2ccccc2N=[N+]=[N-])N=C(c2ccc(OCCCO)cc2)O[C@H]1c1ccccc1N=[N+]=[N-]
TRUE

Another compound to look at: COC(=O)CCCCCCC(=O)Nc1ccc(NC(=O)CCCC[P+](c2ccccc2)(c2ccccc2)c2ccccc2)cc1
TRUE

Record: O=C1O[C@@H](c2ccccc2)[C@@H](c2ccccc2)N2[C@@H](c3ccccc3OCCO)[C@]3(C(=O)Nc4ccc(C#CCCO)cc43)[C@@H](C(=O)N3CCCCCCC3)[C@H]12
TRUE

Moving on to CC(c1ccccc1)C(O)C1C=CC2C(=O)N(c3ccccc3)C(=O)C2N1Nc1ccc([N+](=O)[O-])cc1 (stereo not given)
TRUE

Then what about the compound N#Cc1ccc(NN2C(C(O)c3ccc(F)cc3)C=CC3C(=O)N(c4ccccc4)C(=O)C32)cc1 (stereo not given) ?
TRUE

Can you handle C=CC[C@]1(C(=O)O)COC(c2ccc(OCCCO)cc2)=N1 next?
FALSE

Another compound: COC(=O)c1ccc([C@H](NC(=O)c2ccco2)[C@]2(C)C[C@H]2C2CCCCC2)cc1
TRUE

Similarly, O=C1c2ccccc2[C@](Cc2ccccc2I)(C(=O)NCC(F)(F)F)[C@H](c2ccc(CO)cc2)N1C1CCCCC1 ?
TRUE

Entry O=C1C2C=CC(C(O)c3ccc(F)cc3)N(n3cnnc3)C2C(=O)N1Cc1ccccc1 (stereo not given) please
FALSE

Then C=CCN1C(=O)[C@@]2(O[C@@H](CCn3cc([C@H](O)c4ccccc4)nn3)[C@H]([Si](C)(C)c3ccc(OC)cc3)[C@H]2C)c2cc(N3CCC3=O)ccc21 ?
FALSE

Now consider O=C(NCCCCCNC(=O)/C(Cc1ccccc1)=N/O)OCc1ccccc1 and answer again.
FALSE

Would you kindly repeat that for COCCOC(=O)N1C(=O)[C@@]2(c3cc(C#CCC(C(=O)OC)C(=O)OC)ccc31)[C@H](C(=O)N1CCc3cc(OC)c(OC)cc3C1)[C@H]1C(=O)O[C@H](c3ccccc3)[C@H](c3ccccc3)N1[C@@H]2c1ccc(OCCO)cc1 ?
TRUE

Okay, and CN1C(=O)C2C=CC(C(O)C#Cc3ccccc3)N(Nc3ccccc3)C2C1=O (stereo not given) ?
TRUE

Cool, now CCOc1cc(C(O)C2C=CC3C(=O)N(C)C(=O)C3N2Nc2ccccc2)ccc1O (stereo not given)
TRUE

Same read-out for C=CCNC(=O)[C@H]1[C@@H]2C(=O)O[C@@H](c3ccccc3)[C@@H](c3ccccc3)N2[C@@H](c2ccc(O)cc2)[C@]12C(=O)N(C(=O)OCCOC)c1ccccc12 ?
TRUE
